Assignment: determine reported switch fluorescence ratio for the given sequences.
System: ATP;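 note: ATP exposure 15 min at 22 °C before imaging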
Assay: switch fluorescence ratio, 500 uM ATP over buffer (Cy3 cluster intensity, sum of 5 cycles each) (fold (ratio)); higher = stronger signal-on switching upon ATP binding; sequences stand for … in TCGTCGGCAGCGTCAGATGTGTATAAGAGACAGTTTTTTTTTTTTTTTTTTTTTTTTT…TC
Conditions: aptamer strand: ATP DNA aptamer (quencher-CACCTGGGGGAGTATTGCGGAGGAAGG + anchor), 100 nM annealed; ATP concentration: 500 uM
Reply with just the number.

Task: Param item = TTGGGCCCGG ; retrieve measured switch fluorescence ratio.
Result: 0.988

Task: // returns reported switch fluorescence ratio for input GACGTGGAAG
Result: 1.01

Task: Fill in: switch fluorescence ratio of TTAAGGTCGG is ___
Result: 1

Task: Suppose we examine the sequence GGATGGGGAA ; what switch fluorescence ratio value has been reported?
Result: 0.998

Task: What switch fluorescence ratio value was documented for this sequence, GTGGTGGCGG ?
Result: 1.02

Task: Need switch fluorescence ratio of ACCCTGTTGG , thanks.
Result: 1.01

Task: Any idea what its switch fluorescence ratio is? The sequence is TGTGAACGGA
Result: 1

Task: Name the recorded switch fluorescence ratio for CAGTTCGTGT .
Result: 1.02

Task: May I ask what switch fluorescence ratio has been recorded for GGGAAGGAGG ?
Result: 1.02

###

System: ATP;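 note: ATP exposure 15 min at 22 °C before imaging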
Assay: switch fluorescence ratio, 500 uM ATP over buffer (Cy3 cluster intensity, sum of 5 cycles each) (fold (ratio)); higher = stronger signal-on switching upon ATP binding; sequences stand for … in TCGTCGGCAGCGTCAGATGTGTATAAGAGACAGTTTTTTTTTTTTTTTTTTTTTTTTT…TC
Settings: aptamer strand: ATP DNA aptamer (quencher-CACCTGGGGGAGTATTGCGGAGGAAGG + anchor), 100 nM annealed; ATP concentration: 500 uM
measure name: switch fluorescence ratio
Give the figure by itself; no unit, no explanation.

Task: Name the recorded switch fluorescence ratio for AAGGGGCCCT .
Result: 1.02

Task: Field request: switch fluorescence ratio | item: GCGAGGCCCG
Result: 0.994

Task: Which value of switch fluorescence ratio has been reported for TGACTGGGTA in the records?
Result: 1

Task: Bench note: what switch fluorescence ratio did TGAGGCCGGG show?
Result: 1

Task: Which switch fluorescence ratio value is on record for TATAATTAGG ?
Result: 0.98

Task: Using the record for GGTTCAGCGT , report its switch fluorescence ratio.
Result: 0.984

Task: GET /values?readout=switch fluorescence ratio&item= ATCGAAACCC
Result: 1.05

Task: Consider the sequence AGCTTCGGTC and give its measured switch fluorescence ratio.
Result: 0.953

Task: Requested field: switch fluorescence ratio. Item: GCAGCATCGG
Result: 1.12

Task: Record request: switch fluorescence ratio value, item TCTCATTACG
Result: 1.01

Task: Request the reported switch fluorescence ratio associated with TACGACACCT
Result: 1.73

Task: Form field: reported switch fluorescence ratio of ATATTTTAGG
Result: 0.996

Task: Can you look up the measured switch fluorescence ratio of GAGGTGTAGC for me?
Result: 1.01

Task: Give the measured switch fluorescence ratio of GGTTTGGGCA .
Result: 1.02

Task: Request the reported switch fluorescence ratio associated with TAGCGGGGGG
Result: 1.02

Task: Given GGAGAAATTT , state its recorded switch fluorescence ratio.
Result: 0.982

Task: # lookup: switch fluorescence ratio of CAGTGCGTTT
Result: 1.01

Task: Recorded switch fluorescence ratio for GTTTGAACGC , please?
Result: 1.08

Task: For the sequence AGAATTGTAC , what switch fluorescence ratio is on record?
Result: 1.05

Task: Record request: switch fluorescence ratio value, item GGTAGGGATC
Result: 1.02

Task: What measured switch fluorescence ratio goes with TTGATTTCAG ?
Result: 1.01

Task: Endpoint output: switch fluorescence ratio of AAGGGGCAGG . Value?
Result: 1.04

Task: What does the record list as switch fluorescence ratio for ACGATGTTGG ?
Result: 0.994

Task: For the sequence TAAAGTGCAT , what switch fluorescence ratio is on record?
Result: 1.04

Task: Please give the measured switch fluorescence ratio for this sequence: CATTATGGGA
Result: 1.01

Task: Param item = AGGATGAGCT ; retrieve measured switch fluorescence ratio.
Result: 0.969

Task: Which switch fluorescence ratio is listed for TATAGGGGCT ?
Result: 0.98

Task: I would be grateful if you could share the reported switch fluorescence ratio for TTTGTAAGCC .
Result: 1.06

Task: Any idea what its switch fluorescence ratio is? The sequence is GGGGTTTTAT
Result: 1.01
